Antifungal activity MIC listing for selected compounds.
tested on: Candida tropicalis KKP 334; test: antifungal activity in vitro, serial dilution in RPMI 1640; type: cell-based
MEASURED_PROPERTY: Antifungal activity MIC (µg/mL)

1. C[C@@H]1[C@H](O)[C@@H](C)/C=C/C=C/C=C/C=C/C=C/C=C/C=C/[C@H](O[C@@H]2O[C@H](C)[C@@H](O)[C@H](NC3CC(=O)N(c4ccccc4C(C)(C)C)C3=O)[C@@H]2O)C[C@@H]2O[C@](O)(C[C@@H](O)C[C@@H](O)[C@H](O)CC[C@@H](O)C[C@@H](O)CC(=O)O[C@H]1C)C[C@H](O)[C@H]2C(=O)O (some centres unmarked) [Compound A4]
4
2. C[C@@H]1[C@H](O)[C@@H](C)/C=C/C=C/C=C/C=C/C=C/C=C/C=C/[C@H](O[C@@H]2O[C@H](C)[C@@H](O)[C@H](NC(=O)[C@H](N)c3ccccc3)[C@@H]2O)C[C@@H]2O[C@](O)(C[C@@H](O)C[C@@H](O)[C@H](O)CC[C@@H](O)C[C@@H](O)CC(=O)O[C@H]1C)C[C@H](O)[C@H]2C(=O)O [Compound A41, N-D-phenylglycylamphotericin B]
4
3. C[C@@H]1[C@H](O)[C@@H](C)/C=C/C=C/C=C/C=C/C=C/C=C/C=C/[C@H](O[C@@H]2O[C@H](C)[C@@H](O)[C@H](NC(=S)NCCN3CCCCC3)[C@@H]2O)C[C@@H]2O[C@](O)(C[C@@H](O)C[C@@H](O)[C@H](O)CC[C@@H](O)C[C@@H](O)CC(=O)O[C@H]1C)C[C@H](O)[C@H]2C(=O)O [Compound A22]
1
4. C[C@@H]1[C@H](O)[C@@H](C)/C=C/C=C/C=C/C=C/C=C/C=C/C=C/[C@H](O[C@@H]2O[C@H](C)[C@@H](O)[C@H](NCc3ccc(-c4ccccc4)cc3)[C@@H]2O)C[C@@H]2O[C@](O)(C[C@@H](O)C[C@@H](O)[C@H](O)CC[C@@H](O)C[C@@H](O)CC(=O)O[C@H]1C)C[C@H](O)[C@H]2C(=O)O [Compound A20, N-[(4-biphenyl)methyl]amphotericin B]
4
5. C[C@@H]1[C@H](O)[C@@H](C)/C=C/C=C/C=C/C=C/C=C/C=C/C=C/[C@H](O[C@@H]2O[C@H](C)[C@@H](O)[C@H](NC(=S)NCCN(C)C)[C@@H]2O)C[C@@H]2O[C@](O)(C[C@@H](O)C[C@@H](O)[C@H](O)CC[C@@H](O)C[C@@H](O)CC(=O)O[C@H]1C)C[C@H](O)[C@H]2C(=O)O [Compound A28]
1

* * *

test system: CCRF-CEM cells; assay: cytotoxic activity against mammalian cells in tissue culture (MTT); assay type: cell-based, human
MEASURED_PROPERTY: IC50 (cytotoxic activity)

1. C[C@@H]1[C@H](O)[C@@H](C)/C=C/C=C/C=C/C=C/C=C/C=C/C=C/[C@H](O[C@@H]2O[C@H](C)[C@@H](O)[C@H](NC(=O)[C@H](N)c3ccccc3)[C@@H]2O)C[C@@H]2O[C@](O)(C[C@@H](O)C[C@@H](O)[C@H](O)CC[C@@H](O)C[C@@H](O)CC(=O)O[C@H]1C)C[C@H](O)[C@H]2C(=O)O
>100 µg/mL
2. CCN(CC)CCNC(=S)N[C@@H]1[C@H](O)[C@H](O[C@H]2/C=C/C=C/C=C/C=C/C=C/C=C/C=C/[C@H](C)[C@@H](O)[C@@H](C)[C@H](C)OC(=O)C[C@H](O)C[C@H](O)CC[C@@H](O)[C@H](O)C[C@H](O)C[C@]3(O)C[C@H](O)[C@@H](C(=O)O)[C@H](C2)O3)O[C@H](C)[C@H]1O
>100 µg/mL
3. C[C@@H]1[C@H](O)[C@@H](C)/C=C/C=C/C=C/C=C/C=C/C=C/C=C/[C@H](O[C@@H]2O[C@H](C)[C@@H](O)[C@H](NC(=S)NCCN(C)C)[C@@H]2O)C[C@@H]2O[C@](O)(C[C@@H](O)C[C@@H](O)[C@H](O)CC[C@@H](O)C[C@@H](O)CC(=O)O[C@H]1C)C[C@H](O)[C@H]2C(=O)O
>100 µg/mL
4. C[C@@H]1[C@H](O)[C@@H](C)/C=C/C=C/C=C/C=C/C=C/C=C/C=C/[C@H](O[C@@H]2O[C@H](C)[C@@H](O)[C@H](NC(=O)[C@@H](N)Cc3ccccc3)[C@@H]2O)C[C@@H]2O[C@](O)(C[C@@H](O)C[C@@H](O)[C@H](O)CC[C@@H](O)C[C@@H](O)CC(=O)O[C@H]1C)C[C@H](O)[C@H]2C(=O)O
>100 µg/mL
5. C[C@@H]1[C@H](O)[C@@H](C)/C=C/C=C/C=C/C=C/C=C/C=C/C=C/[C@H](O[C@@H]2O[C@H](C)[C@@H](O)[C@H](NC(=O)[C@H](N)Cc3cccnc3)[C@@H]2O)C[C@@H]2O[C@](O)(C[C@@H](O)C[C@@H](O)[C@H](O)CC[C@@H](O)C[C@@H](O)CC(=O)O[C@H]1C)C[C@H](O)[C@H]2C(=O)O
>100 µg/mL
6. C[C@@H]1[C@H](O)[C@@H](C)/C=C/C=C/C=C/C=C/C=C/C=C/C=C/[C@H](O[C@@H]2O[C@H](C)[C@@H](O)[C@H](NC(=S)NCCN3CCOCC3)[C@@H]2O)C[C@@H]2O[C@](O)(C[C@@H](O)C[C@@H](O)[C@H](O)CC[C@@H](O)C[C@@H](O)CC(=O)O[C@H]1C)C[C@H](O)[C@H]2C(=O)O
80.9 ± 2.3 µg/mL

* * *

tested on: Human erythrocytes; assay: hemotoxicity determination (hemolytic activity); format: cell-based; details: human erythrocytes, 37° C., 30 minutes
MEASURED_PROPERTY: Hemotoxi EH50

1. C[C@@H]1[C@H](O)[C@@H](C)/C=C/C=C/C=C/C=C/C=C/C=C/C=C/[C@H](O[C@@H]2O[C@H](C)[C@@H](O)[C@H](NCc3ccc(-c4ccccc4)cc3)[C@@H]2O)C[C@@H]2O[C@](O)(C[C@@H](O)C[C@@H](O)[C@H](O)CC[C@@H](O)C[C@@H](O)CC(=O)O[C@H]1C)C[C@H](O)[C@H]2C(=O)O [Compound A20, N-[(4-biphenyl)methyl]amphotericin B]
>100 µg/mL
2. C[C@@H]1[C@H](O)[C@@H](C)/C=C/C=C/C=C/C=C/C=C/C=C/C=C/[C@H](O[C@@H]2O[C@H](C)[C@@H](O)[C@H](NC(=O)[C@@H](N)Cc3ccc(I)cc3)[C@@H]2O)C[C@@H]2O[C@](O)(C[C@@H](O)C[C@@H](O)[C@H](O)CC[C@@H](O)C[C@@H](O)CC(=O)O[C@H]1C)C[C@H](O)[C@H]2C(=O)O
>100 µg/mL
3. C[C@@H]1[C@H](O)[C@@H](C)/C=C/C=C/C=C/C=C/C=C/C=C/C=C/[C@H](O[C@@H]2O[C@H](C)[C@@H](O)[C@H](NC(=O)[C@H](N)COC(C)(C)C)[C@@H]2O)C[C@@H]2O[C@](O)(C[C@@H](O)C[C@@H](O)[C@H](O)CC[C@@H](O)C[C@@H](O)CC(=O)O[C@H]1C)C[C@H](O)[C@H]2C(=O)O
>200 µg/mL

* * *

# reported Antifungal activity MIC; entries follow
tested on: Candida glabrata DSM 11226; assay: antifungal activity in vitro, serial dilution in RPMI 1640; format: cell-based
MEASURED_PROPERTY: Antifungal activity MIC

1) C[C@@H]1[C@H](O)[C@@H](C)/C=C/C=C/C=C/C=C/C=C/C=C/C=C/[C@H](O[C@@H]2O[C@H](C)[C@@H](O)[C@H](NCc3ccc(C(C)(C)C)cc3)[C@@H]2O)C[C@@H]2O[C@](O)(C[C@@H](O)C[C@@H](O)[C@H](O)CC[C@@H](O)C[C@@H](O)CC(=O)O[C@H]1C)C[C@H](O)[C@H]2C(=O)O
4 µg/mL
2) C[C@@H]1[C@H](O)[C@@H](C)/C=C/C=C/C=C/C=C/C=C/C=C/C=C/[C@H](O[C@@H]2O[C@H](C)[C@@H](O)[C@H](NC(=S)NCCN3CCCC3)[C@@H]2O)C[C@@H]2O[C@](O)(C[C@@H](O)C[C@@H](O)[C@H](O)CC[C@@H](O)C[C@@H](O)CC(=O)O[C@H]1C)C[C@H](O)[C@H]2C(=O)O
4 µg/mL
3) C[C@@H]1[C@H](O)[C@@H](C)/C=C/C=C/C=C/C=C/C=C/C=C/C=C/[C@H](O[C@@H]2O[C@H](C)[C@@H](O)[C@H](NC(=O)[C@@H](N)Cc3ccc(I)cc3)[C@@H]2O)C[C@@H]2O[C@](O)(C[C@@H](O)C[C@@H](O)[C@H](O)CC[C@@H](O)C[C@@H](O)CC(=O)O[C@H]1C)C[C@H](O)[C@H]2C(=O)O
8 µg/mL
